assay.explanation: Ratio of affinity versus antagonist [3H]-QNB divided by affinity versus agonist [3H]OXO-M
Format: functional
Hi there, I'd appreciate the recorded Ratio for every entry that follows.

Report measured Ratio; entry is CN1C2CCCC1C(OC(=O)OCC(Cl)(Cl)Cl)C2 (configuration not stated) 31

Report measured Ratio; entry is O=C(OC1CC2CCCC1N2)C1CCCCC1 (configuration not stated) 13

Report measured Ratio; entry is CN1C2CCCC1C(OC(=O)c1ccc([N+](=O)[O-])cc1)C2 (configuration not stated) > 10

Report measured Ratio; entry is CN(C)C(=O)OC1CC2CCCC1N2 (configuration not stated) > 60

Report measured Ratio; entry is COc1ccccc1C(=O)OC1CC2CCCC1N2 (configuration not stated) 19

Report measured Ratio; entry is COc1ccc(C(=O)OC2CC3CCCC2N3)cc1 (configuration not stated) > 60

Report measured Ratio; entry is COc1ccc(C(=O)OC2CC3CCCC2N3C)cc1 (configuration not stated) > 15

Report measured Ratio; entry is CCCC(=O)OC1CC2CCCC1N2 (configuration not stated) 190

Report measured Ratio; entry is CN(C)C(=O)OC1CC2CCCC1N2C (configuration not stated) > 60

Report measured Ratio; entry is CN1C2CCCC1C(OC(=O)C1CCCCC1)C2 (configuration not stated) 13

Report measured Ratio; entry is CS(=O)(=O)OC1CC2CCCC1N2 (configuration not stated) > 100

Report measured Ratio; entry is CN1C2CCCC1C(OS(C)(=O)=O)C2 (configuration not stated) > 100

Report measured Ratio; entry is CCCC(=O)OC1CC2CCCC1N2C (configuration not stated) 28

Report measured Ratio; entry is O=C(OC1CC2CCCC1N2)c1ccccc1 (configuration not stated) 1.2

Report measured Ratio; entry is O=C(OC1CC2CCCC1N2)c1ccc([N+](=O)[O-])cc1 (configuration not stated) 5.1

Report measured Ratio; entry is CCC(=O)OC1CC2CCCC1N2 (configuration not stated) 1100

Report measured Ratio; entry is CN1C2CCCC1C(OC(=O)c1ccccc1)C2 (configuration not stated) 2.1

* * *

system.tested: Muscarinic acetylcholine receptor M2 (Homo sapiens)
Sequence (P08172 whole entry): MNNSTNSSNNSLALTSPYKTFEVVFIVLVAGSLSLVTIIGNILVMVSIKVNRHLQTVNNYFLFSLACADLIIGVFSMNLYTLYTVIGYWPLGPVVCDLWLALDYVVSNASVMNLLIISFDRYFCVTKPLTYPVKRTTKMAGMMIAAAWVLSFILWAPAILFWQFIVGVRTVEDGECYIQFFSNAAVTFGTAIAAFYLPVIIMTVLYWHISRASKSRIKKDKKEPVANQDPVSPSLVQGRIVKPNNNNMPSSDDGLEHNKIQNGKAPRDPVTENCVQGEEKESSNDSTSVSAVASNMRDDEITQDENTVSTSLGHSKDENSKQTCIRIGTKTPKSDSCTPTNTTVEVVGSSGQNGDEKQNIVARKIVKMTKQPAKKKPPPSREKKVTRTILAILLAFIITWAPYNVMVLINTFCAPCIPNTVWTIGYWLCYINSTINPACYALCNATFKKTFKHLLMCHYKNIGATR
assay.explanation: Inhibition of [3H]- oxotremorine-M binding to human Muscarinic acetylcholine receptor M2 expressed in CHO cell membranes
Hi there, I'd appreciate the recorded pKi for every entry that follows.
Reminder that pKi is minus the log10 of a molar concentration.

Report measured pKi; entry is CCC(=O)OC1CC2CCCC1N2C (stereo not drawn) 5.92

Report measured pKi; entry is CN1C2CCCC1C(OC(=O)c1ccccc1)C2 (stereo not drawn) 5.89

Report measured pKi; entry is CN1C2CCCC1C(OC(=O)OCC(Cl)(Cl)Cl)C2 (stereo not drawn) 6.04
